- test method notes: Test 4: inhibition of radical production from DPPH
- conditions: tested substance 100 μM in methanol, 30 minutes, absorbance 517 nm
For each entry below, report its % inhibition radical production from DPPH value.
Entry rule: numbers only, all in %.

The compound listed as `O=C(O)c1cc(O)ccc1O` shows % inhibition radical production from DPPH equal to 80

The compound listed as `COc1cc(/C=C/C(=O)O)ccc1O` shows % inhibition radical production from DPPH equal to 100

The compound listed as `O=C(O)CCC(=O)O` shows % inhibition radical production from DPPH equal to 0

The compound listed as N[C@@H](CS)C(=O)O [Cisteine] shows % inhibition radical production from DPPH equal to 100

The compound listed as O=C1NC(C(=O)O)CS1 (stereo not shown) shows % inhibition radical production from DPPH equal to 0

The compound listed as O=C(O)C1CSCN1 (stereo not shown) shows % inhibition radical production from DPPH equal to 0

The compound listed as `N[C@@H](Cc1c[nH]cn1)C(=O)O` shows % inhibition radical production from DPPH equal to 0

###

- System: Human endothelial cells of the umbilical vein
- test method notes: Test 2 (CIP): apoptosis (DNA fragmentation) induced by cumene hydroperoxide in endothelial cells
- Type: cell-based
- conditions: Homo sapiens, Endothelial cell, 1 h; drug 10^-4 M, CIP 5 mM for one hour, DNA fragmentation; read-out: Apoptosis % with respect to the controls treated only with CIP
reported property: activity at 100 µM (%)
Entry rule: numbers only, all in %.

The compound listed as O=C(O)COCCN1CCN(C(c2ccccc2)c2ccc(Cl)cc2)CC1 (stereo not drawn) shows activity at 100 µM equal to 115

The compound listed as `CC1(C)S[C@@H]2[C@H](NC(=O)[C@H](N)c3ccccc3)C(=O)N2[C@H]1C(=O)O` shows activity at 100 µM equal to 94

The compound listed as `COC(=O)[C@H](c1ccccc1Cl)N1CCc2sccc2C1` shows activity at 100 µM equal to 110

The compound listed as `Nc1nc2c(ncn2COCCO)c(=O)[nH]1` shows activity at 100 µM equal to 95

The compound listed as `Nc1c(Br)cc(Br)cc1CN[C@H]1CC[C@H](O)CC1` shows activity at 100 µM equal to 70

The compound listed as `CCOC(=O)[C@H](CCc1ccccc1)N[C@@H](C)C(=O)N1CCC[C@H]1C(=O)O` shows activity at 100 µM equal to 80

###

- Tested on: gastric mucosa
- test method notes: Example F6: gastric tolerability of invention compounds versus precursor drugs, with or without L-NAME
- Assay type: in vivo, rats
- conditions: rats, dose and route as in the column beside (higher doses than in L-NAME animals)
For each entry below, report its % gastropathy, animals not treated with L-NAME value.
Entry rule: numbers only, all in %.

gastric mucosa data for `O=C(CCC(=O)OCCCCO[N+](=O)[O-])NCCCC(O)(P(=O)(O)O)P(=O)(O)O` ; its % gastropathy, animals not treated with L-NAME: 20

gastric mucosa data for `O=C(CCC(=O)OCCCCO[N+](=O)[O-])Nc1c2c(nc3ccccc13)CCCC2` ; its % gastropathy, animals not treated with L-NAME: 20

gastric mucosa data for O=C(Cc1ccccc1Nc1c(Cl)cccc1Cl)NC(Cc1c[nH]cn1)C(=O)OCCCCO[N+](=O)[O-] (stereo not shown) ; its % gastropathy, animals not treated with L-NAME: 0

gastric mucosa data for Nc1c(Br)cc(Br)cc1CNC1CCC(OC(=O)CCC(=O)OCCCCO[N+](=O)[O-])CC1 (stereo not shown) ; its % gastropathy, animals not treated with L-NAME: 10

###

- Tested on: gastric mucosa
- test method notes: Example F6: gastric tolerability of invention compounds versus precursor drugs, with or without L-NAME
- Type: in vivo, rats
- conditions: rats, L-NAME
For each entry below, report its % gastropathy, animals treated with L-NAME value.
Entry rule: numbers only, all in %.

The molecule listed as Nc1c(Br)cc(Br)cc1CNC1CCC(OC(=O)CCC(=O)OCCCCO[N+](=O)[O-])CC1 (stereo not shown) shows % gastropathy, animals treated with L-NAME equal to 0

The molecule listed as `O=C(CCC(=O)OCCCCO[N+](=O)[O-])NCCCC(O)(P(=O)(O)O)P(=O)(O)O` shows % gastropathy, animals treated with L-NAME equal to 10

The molecule listed as `O=C(CCC(=O)OCCCCO[N+](=O)[O-])Nc1c2c(nc3ccccc13)CCCC2` shows % gastropathy, animals treated with L-NAME equal to 0

The molecule listed as O=C(Cc1ccccc1Nc1c(Cl)cccc1Cl)NC(Cc1c[nH]cn1)C(=O)OCCCCO[N+](=O)[O-] (stereo not shown) shows % gastropathy, animals treated with L-NAME equal to 0

###

- Test system: gastric mucosa
- test method notes: Example F6: gastric tolerability of invention compounds versus precursor drugs, with or without L-NAME
- Type: in vivo, rats
- conditions: rat, in vivo, 4 weeks
reported property: % gastropathy, animals not treated with L-NAME (%)
Entry rule: numbers only, all in %.

The compound listed as `Nc1c2c(nc3ccccc13)CCCC2` shows % gastropathy, animals not treated with L-NAME equal to 80

The compound listed as NCCCC(O)(P(=O)(O)O)P(=O)(O)O [Alendronate] shows % gastropathy, animals not treated with L-NAME equal to 90

The compound listed as `O=C(O)Cc1ccccc1Nc1c(Cl)cccc1Cl` shows % gastropathy, animals not treated with L-NAME equal to 70

The compound listed as `Nc1c(Br)cc(Br)cc1CN[C@H]1CC[C@H](O)CC1` shows % gastropathy, animals not treated with L-NAME equal to 60

###

- Tested on: gastric mucosa
- test method notes: Example F6: gastric tolerability of invention compounds versus precursor drugs, with or without L-NAME
- Format: in vivo, rats
- conditions: rat, in vivo, 4 weeks
For each entry below, report its % gastropathy, animals treated with L-NAME value.
Entry rule: numbers only, all in %.

The compound listed as NCCCC(O)(P(=O)(O)O)P(=O)(O)O [Alendronate] shows % gastropathy, animals treated with L-NAME equal to 70

The compound listed as `Nc1c(Br)cc(Br)cc1CN[C@H]1CC[C@H](O)CC1` shows % gastropathy, animals treated with L-NAME equal to 80

The compound listed as `Nc1c2c(nc3ccccc13)CCCC2` shows % gastropathy, animals treated with L-NAME equal to 70

The compound listed as `O=C(O)Cc1ccccc1Nc1c(Cl)cccc1Cl` shows % gastropathy, animals treated with L-NAME equal to 100
